experiment: self-splicing fitness, log relative to wild type (ln ratio); higher = more splicing; Tetrahymena group I intron in knt gene, E. coli kanamycin selection, DiMSum; sequences stand for … in CUCUCU…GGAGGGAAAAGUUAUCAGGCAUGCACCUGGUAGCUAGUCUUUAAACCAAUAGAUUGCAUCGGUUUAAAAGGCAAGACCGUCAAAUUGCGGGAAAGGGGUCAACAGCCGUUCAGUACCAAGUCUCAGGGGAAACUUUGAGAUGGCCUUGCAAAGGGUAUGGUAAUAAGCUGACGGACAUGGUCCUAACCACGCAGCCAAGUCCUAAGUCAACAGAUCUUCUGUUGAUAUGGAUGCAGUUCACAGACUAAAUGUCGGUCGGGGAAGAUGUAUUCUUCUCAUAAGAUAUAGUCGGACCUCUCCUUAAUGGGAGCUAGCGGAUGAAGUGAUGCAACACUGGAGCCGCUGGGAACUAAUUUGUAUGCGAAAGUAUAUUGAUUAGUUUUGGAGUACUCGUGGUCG; details: 37 °C;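 further: selection with 25 µg/mL kanamycin versus none on LB agar overnight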
self-splicing fitness (ln) vs -0.8: at or above is fulfilled, below is not fulfilled.

query sequence | assigned class
ACACAGCAAUAUUACGGUCC | not fulfilled
UGGAAGCAAUAUUACGAGCA | fulfilled
GUUAAGCAAUAUUACGGUAG | not fulfilled
ACGGAGCAAUAUUACGAAUU | not fulfilled
GUUGAGCAAUAUUACGCCUA | not fulfilled
AAACAGCAAUAUUACGUAAA | not fulfilled
GGAAAGCAAUAUUACGGAUG | not fulfilled
GUCGAGCAAUAUUACGUACU | not fulfilled
AAGCAGCAAUAUUACGCUAA | not fulfilled
UUUUAGCAAUAUUACGUUUU | not fulfilled
AGCUAGCAAUAUUACGGCGC | fulfilled
ACCCAGCAAUAUUACGCGAU | not fulfilled
UUUUAGCAAUAUUACGGCUU | not fulfilled
AAAAAGCAAUAUUACGGAUC | fulfilled
CAUCAGCAAUAUUACGGCUG | fulfilled
UACCAGCAAUAUUACGCGAG | fulfilled
UAGAAGCAAUAUUACGGCCG | fulfilled
GCGGAGCAAUAUUACGUCCG | fulfilled
GCCCAGCAAUAUUACGGGGU | not fulfilled
GUGCAGCAAUAUUACGUACU | not fulfilled
AUAAAGCAAUAUUACGGCAA | fulfilled
AGCUAGCAAUAUUACGCAAA | not fulfilled
AGGCAGCAAUAUUACGACGG | fulfilled
GAAGAGCAAUAUUACGGUGU | not fulfilled
AAAAAGCAAUAUUACGUCGU | not fulfilled
ACCUAGCAAUAUUACGGACA | fulfilled
CCACAGCAAUAUUACGGAAC | not fulfilled
GAAAAGCAAUAUUACGCUGC | not fulfilled
UACCAGCAAUAUUACGUGAA | fulfilled
UUUCAGCAAUAUUACGUCAA | fulfilled
UAUAAGCAAUAUUACGCGUC | not fulfilled
GGCGAGCAAUAUUACGGAUU | not fulfilled
AAACAGCAAUAUUACGUAUU | not fulfilled

---

test: self-splicing fitness, log relative to wild type (ln ratio); higher = more splicing; Tetrahymena group I intron in knt gene, E. coli kanamycin selection, DiMSum; sequences stand for … in CUCUCU…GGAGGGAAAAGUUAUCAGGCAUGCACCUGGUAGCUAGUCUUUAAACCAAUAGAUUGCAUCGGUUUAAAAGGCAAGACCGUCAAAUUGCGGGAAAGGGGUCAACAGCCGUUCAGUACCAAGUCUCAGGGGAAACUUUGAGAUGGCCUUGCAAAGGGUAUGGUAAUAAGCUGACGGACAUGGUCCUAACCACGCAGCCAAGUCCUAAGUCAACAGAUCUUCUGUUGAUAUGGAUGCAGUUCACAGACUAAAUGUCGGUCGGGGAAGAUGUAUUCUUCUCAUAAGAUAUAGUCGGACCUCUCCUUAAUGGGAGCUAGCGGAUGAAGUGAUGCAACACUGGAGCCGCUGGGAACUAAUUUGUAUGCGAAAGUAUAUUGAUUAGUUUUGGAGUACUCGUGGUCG; conditions: 30 °C

query sequence | self-splicing fitness (ln)
CUAUAGCAAUAUUACGUCAC | -3.4
ACCGAGCAAUAUUACGCUGU | -3.32
UCCUAGCAAUAUUACGGCGC | -2.21
AGAUAGCAAUAUUACGUUCU | -2.38
GUGAAGCAAUAUUACGGCGA | 0.0822
AGUGAGCAAUAUUACGUACG | -2.22
CAGCAGCAAUAUUACGAUGC | -4.05
GUGUAGCAAUAUUACGUGUA | -2.62
CAGAAGCAAUAUUACGUGAU | -2.97
AAGCAGCAAUAUUACGAAAA | -2.81
GUGAAGCAAUAUUACGGAGA | -2.03
AGACAGCAAUAUUACGCCCG | -0.434
CUUGAGCAAUAUUACGAGUG | -1.72
CGCAAGCAAUAUUACGUUCC | -2.95
UUAAAGCAAUAUUACGUAGG | -1.29
GAUUAGCAAUAUUACGUAUU | -3
GAUCAGCAAUAUUACGCCCG | -0.808
CCAGAGCAAUAUUACGUCAG | -2.58
GUGUAGCAAUAUUACGCUAG | -3.53
GUUAAGCAAUAUUACGCUCA | -0.759
CCUCAGCAAUAUUACGGGCU | -2.67
CAGAAGCAAUAUUACGAGUA | -3.2
AUUCAGCAAUAUUACGGUAG | -3.49
UAUAAGCAAUAUUACGCUGU | -2.45
CUAGAGCAAUAUUACGGUGU | -4.1
AUAUAGCAAUAUUACGGUGG | -3.4
CACUAGCAAUAUUACGAUAA | -3.35
CGCGAGCAAUAUUACGGCUG | -0.795
AGCUAGCAAUAUUACGCAUC | -2.95
AACGAGCAAUAUUACGAAAU | -3.74
CCGUAGCAAUAUUACGCCCG | -0.871
ACGCAGCAAUAUUACGGGUU | -2.19
AGGGAGCAAUAUUACGUCGC | -1.42
CCAAAGCAAUAUUACGACAG | -0.638
UCCUAGCAAUAUUACGAGAG | -3.57
AUCGAGCAAUAUUACGACGG | -3.75
UUACAGCAAUAUUACGGCGA | -0.0852
AUACAGCAAUAUUACGCUGC | -2.38
AAAGAGCAAUAUUACGCACG | -2.69
ACUAAGCAAUAUUACGAAUC | -3.41
AAUUAGCAAUAUUACGCGUC | -2.69
GCCAAGCAAUAUUACGAGUG | -2.32
GUGCAGCAAUAUUACGGUUA | -0.723
CCUAAGCAAUAUUACGUCGU | -3.14
UAGUAGCAAUAUUACGUCUA | 0.265
ACUGAGCAAUAUUACGUGGA | -2.94
GCUAAGCAAUAUUACGCCGG | -2.65
GCUGAGCAAUAUUACGCAUG | -2.68
ACUUAGCAAUAUUACGAUCC | -1.9
GCUAAGCAAUAUUACGAAGU | -3.47
UGUGAGCAAUAUUACGCCGC | -2.82
UUUGAGCAAUAUUACGAUGU | -3.05
UGCUAGCAAUAUUACGGCGA | -0.369
CCAAAGCAAUAUUACGUGGU | -3.39
CUGAAGCAAUAUUACGAUUC | -3.13
CGGCAGCAAUAUUACGGGCU | -3.81
CACCAGCAAUAUUACGCGCA | -2.03
AGGUAGCAAUAUUACGGACG | -1.46
AUUAAGCAAUAUUACGCAGA | -2.88
GGAAAGCAAUAUUACGGAUG | -2.54
CCAGAGCAAUAUUACGAACU | -3.13
CAAAAGCAAUAUUACGCAAG | -1.52
UAAAAGCAAUAUUACGUAGA | -2.7
AGUGAGCAAUAUUACGAAAA | -3.16
AUAUAGCAAUAUUACGAUCU | 0.333
GGGUAGCAAUAUUACGACUA | -0.339
GUGAAGCAAUAUUACGAGCG | -0.702

---

assay: self-splicing fitness, log relative to wild type (ln ratio); higher = more splicing; Tetrahymena group I intron in knt gene, E. coli kanamycin selection, DiMSum; sequences stand for … in CUCUCU…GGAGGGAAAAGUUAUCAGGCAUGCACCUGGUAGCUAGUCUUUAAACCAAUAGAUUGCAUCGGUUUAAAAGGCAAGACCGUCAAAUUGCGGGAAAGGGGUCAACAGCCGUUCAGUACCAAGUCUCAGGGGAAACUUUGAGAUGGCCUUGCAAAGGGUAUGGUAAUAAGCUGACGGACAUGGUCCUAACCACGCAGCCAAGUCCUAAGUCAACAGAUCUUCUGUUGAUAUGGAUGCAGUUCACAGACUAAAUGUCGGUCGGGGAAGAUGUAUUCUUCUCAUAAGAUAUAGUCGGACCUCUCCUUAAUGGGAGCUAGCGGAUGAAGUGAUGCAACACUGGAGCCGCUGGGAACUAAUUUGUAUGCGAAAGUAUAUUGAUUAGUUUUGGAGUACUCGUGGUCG; details: 30 °C
self-splicing fitness (ln) vs -2: at or above is Fulfilled, below is Not fulfilled.

query sequence | assigned class
UCGCAGCAAUAUUACGCAGG | Not fulfilled
UGGAAGCAAUAUUACGAUUA | Fulfilled
CACAAGCAAUAUUACGGCGC | Not fulfilled
ACCCAGCAAUAUUACGACUA | Fulfilled
AACGAGCAAUAUUACGCCGC | Not fulfilled
ACCGAGCAAUAUUACGUGGA | Not fulfilled
ACUGAGCAAUAUUACGCGUC | Not fulfilled
AAUUAGCAAUAUUACGUCUG | Fulfilled
GAUCAGCAAUAUUACGUUUA | Fulfilled
GACUAGCAAUAUUACGUGAU | Fulfilled
AAAGAGCAAUAUUACGGGGU | Not fulfilled
GUCAAGCAAUAUUACGACAA | Not fulfilled
GUGUAGCAAUAUUACGUGGG | Not fulfilled
AAUCAGCAAUAUUACGCUUU | Fulfilled
AGAUAGCAAUAUUACGGGUA | Fulfilled
UUCCAGCAAUAUUACGCUGG | Not fulfilled
GUGCAGCAAUAUUACGUACU | Not fulfilled
AACGAGCAAUAUUACGUCGC | Not fulfilled
GUUGAGCAAUAUUACGGUCU | Not fulfilled
AACCAGCAAUAUUACGCCCU | Fulfilled
AUAGAGCAAUAUUACGGACG | Not fulfilled
ACGCAGCAAUAUUACGGGAA | Not fulfilled
GUUGAGCAAUAUUACGGCCC | Fulfilled
CGAGAGCAAUAUUACGCACG | Not fulfilled
UGGCAGCAAUAUUACGGGUU | Not fulfilled
CAACAGCAAUAUUACGGCUC | Fulfilled
CUGUAGCAAUAUUACGCGCA | Not fulfilled
UGUUAGCAAUAUUACGCCCG | Fulfilled
AUAAAGCAAUAUUACGCGUA | Fulfilled
UAUUAGCAAUAUUACGAGCU | Not fulfilled
CCUAAGCAAUAUUACGGUAC | Not fulfilled
